study.target: NicA2 (Pseudomonas putida, UniProt F8G0P2)
Sequence (F8G0P2 1-482): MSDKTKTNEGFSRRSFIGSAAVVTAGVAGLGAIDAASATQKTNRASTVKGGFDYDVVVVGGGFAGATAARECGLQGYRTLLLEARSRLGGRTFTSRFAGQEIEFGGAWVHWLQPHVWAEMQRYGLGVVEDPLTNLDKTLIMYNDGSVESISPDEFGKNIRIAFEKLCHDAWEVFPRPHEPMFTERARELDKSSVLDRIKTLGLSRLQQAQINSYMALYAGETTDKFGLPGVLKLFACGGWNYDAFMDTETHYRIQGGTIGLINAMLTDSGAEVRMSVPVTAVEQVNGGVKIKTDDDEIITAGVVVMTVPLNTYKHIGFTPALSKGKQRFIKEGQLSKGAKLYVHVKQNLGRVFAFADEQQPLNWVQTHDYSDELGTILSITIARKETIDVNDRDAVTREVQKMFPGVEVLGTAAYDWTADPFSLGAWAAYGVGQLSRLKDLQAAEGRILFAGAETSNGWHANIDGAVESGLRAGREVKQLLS
procedure.details: biochemical
readout.type: Kd
Form entry: enter the amount, then its unit.

query: Provide only the value of recorded Kd for `c1cncc(C2=NCCC2)c1`
result: 268 µM

Just for reference, paper PMC7904663 is where these values come from.
